Values compiled from PubChem BioAssay (NCI).

# maps each entry to its growth
- Tested on: SK-MEL-2 melanoma
- PROCEDURE SUMMARY: NCI-60 one-dose screen, 48 h (100 = growth as untreated, 0 = no growth, -100 = all killed)
- CONDITION DETAILS: 10 µM unless noted
The panel holds about 83,000 compounds, 20% with a hit somewhere; the sample as a whole holds those more often.
ASSAY ENDPOINT: growth (%)

>>> quantitative_readout("CC(C)CSc1nc(NCCc2c[nH]c3ccccc23)c(C#N)c(-c2ccc(F)cc2)n1")
78.9
>>> quantitative_readout("CC12CC[C@@H]3[C@]4(C)COC(c5cn[nH]c5-c5ccc(Br)cc5)O[C@@H]4CC[C@@]3(C)[C@@H]1CC(C1=CCOC1=O)O2 (some centres undefined)")
52.4
>>> quantitative_readout("O=C(NNc1nc2cc(C(F)(F)F)ccc2n2cccc12)c1cnccn1")
-73.1
>>> quantitative_readout("Cc1cc(=O)oc2cc(OCCCCOc3ccc(/C=C/C(=O)Nc4ccccc4N)cc3)ccc12")
111
>>> quantitative_readout("O=C(Cn1c(/C=C/c2ccccc2)nc2ccccc2c1=O)Nc1ccc(Cl)cc1")
114
>>> quantitative_readout("Cc1cc(=O)oc2cc(OCCOc3ccc(/C=C/C(=O)Nc4ccccc4N)cc3)ccc12")
59.1
>>> quantitative_readout("COc1cccc(-c2c(C#N)c(-c3ccc(Cl)cc3)nc3n[nH]c(-c4ccc(Cl)cc4)c23)c1")
53.1
>>> quantitative_readout("N/N=C(\\N)c1c(N)nc(=S)[nH]c1-c1ccc(Cl)cc1Cl")
109
>>> quantitative_readout("CCCSc1nc(NCCc2c[nH]c3ccccc23)c(C#N)c(-c2ccccc2)n1")
75

---

- Test system: PC-3 prostate
- PROCEDURE SUMMARY: NCI-60 one-dose screen, 48 h (100 = growth as untreated, 0 = no growth, -100 = all killed)
- CONDITION DETAILS: 10 µM unless noted
Compounds without any hit were thinned out: in the full panel of roughly 83,000, 20% have a hit.
# maps each entry to its growth
ASSAY ENDPOINT: growth (%)

>>> quantitative_readout("COc1ccc2[nH]cc(-c3nc(N)nnc3-c3cn(C)c4ncccc34)c2c1")
68.4
>>> quantitative_readout("COc1cc2c(c(OC)c1OC)C(=O)CC(c1cccc(NC(=O)c3cc(NC(=O)[C@H](CO)NC(=O)OC(C)(C)C)ccc3Cl)c1)O2 (some centres undefined)")
28.1
>>> quantitative_readout("NC(=S)Nc1cccc(NC(N)=S)c1")
102
>>> quantitative_readout("COc1cc(/C=C/C(=O)c2ccc(C)cc2)ccc1Oc1nc(Nc2ccc(F)cc2)nc(N(C)C)n1")
50.8
>>> quantitative_readout("Cn1cc(-c2cc3nc(-c4cn(C)c5ncccc45)cc(N)n3n2)c2ccccc21")
27.2
>>> quantitative_readout("COCOc1cc2c(=O)c(C)c(C(=O)N[C@@H](Cc3ccccc3)C(O)C(=O)NCc3ccccc3)oc2cc1OC (some centres undefined)")
73.4
>>> quantitative_readout("CSc1ccccc1NC(=O)c1ccc2nnn(/C(C#N)=C/c3ccccn3)c2c1")
-71
>>> quantitative_readout("O=C1C(=Nc2ccc(F)c(Cl)c2)c2cccc3cccc1c23")
77.9
>>> quantitative_readout("COc1cc(C2CC(c3cc(OC)c(OC)c(OC)c3)=NN2C(C)=O)ccc1OCc1ccccc1 (centres undefined)")
9.84
>>> quantitative_readout("COc1ccc(C2=NN(c3ccccc3)C(c3ccc(OC)c(OCc4ccccc4)c3)C2)cc1OC (centres undefined)")
98
>>> quantitative_readout("O=c1oc2ccc(Br)cc2cc1C1=CSc2nc3sc4c(c3c(=O)n2N=C1)CCCC4")
76.7
>>> quantitative_readout("C=C1CCC2C3(C)COC(c4cccs4)OC3CCC2(C)C1CC(Sc1ccccc1)C1=CCOC1=O (centres undefined)")
53.5
>>> quantitative_readout("COc1ccc(-c2nc3cc(C)ccc3n2CC(=O)N=Nc2c(O)[nH]c3ccccc23)cc1")
8.89
>>> quantitative_readout("Cc1ccc(C(=O)CSc2nc3ccc(F)cc3c(=O)n2-c2ccc(Cl)cc2)cc1")
25.9
>>> quantitative_readout("O=c1[nH]c2ccccc2cc1CSc1nccc(-c2ccc3ccccc3c2)n1")
50
>>> quantitative_readout("Cc1ccccc1[C@H]1C(C(=O)c2ccc(Cl)cc2)C2(N[C@@H]1c1ccccc1)C(=O)Nc1ccccc12 (some centres undefined)")
-22.6
>>> quantitative_readout("Cc1ccc(S(=O)(=O)c2nc(S(=O)(=O)c3ccc(C)cc3)c(N3CCC(O)CC3)s2)cc1")
56.8
>>> quantitative_readout("CCCn1cc(-c2nc(Nc3ccc(C(=O)NCCCCNc4cccc5c4C(=O)N(C4CCC(=O)NC4=O)C5=O)cc3)nc3[nH]ccc23)cn1 (centres undefined)")
3.62
>>> quantitative_readout("CCN(CC)C(=O)N/C(N)=N/c1nc2ccccc2s1")
54.9
